Quick list: Kd per entry.
# Test Target: UniProt:P04278
# Sequence (P04278 whole entry): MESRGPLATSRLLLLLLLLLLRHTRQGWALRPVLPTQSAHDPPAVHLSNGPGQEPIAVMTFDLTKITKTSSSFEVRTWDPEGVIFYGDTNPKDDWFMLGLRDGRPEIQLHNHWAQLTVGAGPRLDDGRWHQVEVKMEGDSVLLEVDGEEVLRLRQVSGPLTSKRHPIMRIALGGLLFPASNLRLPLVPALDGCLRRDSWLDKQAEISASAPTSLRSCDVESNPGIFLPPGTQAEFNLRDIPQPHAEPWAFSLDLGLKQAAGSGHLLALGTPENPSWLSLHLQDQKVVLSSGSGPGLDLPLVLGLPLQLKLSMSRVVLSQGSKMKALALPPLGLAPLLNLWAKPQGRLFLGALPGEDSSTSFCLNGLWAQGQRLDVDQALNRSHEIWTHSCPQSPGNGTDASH
Result Type: Kd (nM)

>  <Compound>
CC(=O)[C@@]1(O)CC[C@H]2[C@@H]3CCC4=CC(=O)CC[C@]4(C)[C@H]3CC[C@@]21C [HYDROXYPROGESTERONE]

>  <Result Type>
Kd

>  <Val>
100

$$$$
>  <Compound>
CC(=O)[C@H]1CC[C@H]2[C@@H]3CC=C4C[C@@H](O)CC[C@]4(C)[C@H]3CC[C@]12C

>  <Result Type>
Kd

>  <Val>
70.8

$$$$
>  <Compound>
C[C@@H]1C[C@H]2CC(=O)CC[C@]2(C)[C@H]2CC[C@@]3(C)[C@@H](CC[C@]3(C)O)[C@H]12

>  <Result Type>
Kd

>  <Val>
0.891

$$$$
>  <Compound>
C[C@@]12CCC[C@H]1[C@@H]1CCc3cc(O)ccc3[C@H]1CC2

>  <Result Type>
Kd

>  <Val>
5.01

$$$$
>  <Compound>
C[C@]12CC[C@H](O)CC1=CC[C@@H]1[C@@H]2CC[C@]2(C)C(=O)CC[C@@H]12

>  <Result Type>
Kd

>  <Val>
14.5

$$$$
>  <Compound>
C[C@]12CCC(=O)C[C@@H]1CC[C@@H]1[C@@H]2CC[C@@]2(C)[C@H]1CC[C@]2(C)O

>  <Result Type>
Kd

>  <Val>
1.55

$$$$
>  <Compound>
C[C@]12CC[C@@H]3c4ccc(O)cc4CC[C@H]3[C@@H]1C[C@@H](O)[C@@H]2O

>  <Result Type>
Kd

>  <Val>
234

$$$$
>  <Compound>
C[C@]12CCC(=O)C[C@@H]1CC[C@@H]1[C@@H]2CC[C@]2(C)[C@@H](O)CC[C@@H]12

>  <Result Type>
Kd

>  <Val>
0.182

$$$$
>  <Compound>
CC1(C)CC2=C3C=C[C@@]4(C)[C@@H](CC[C@]4(C)O)[C@@H]3CCC2=CC1=O

>  <Result Type>
Kd

>  <Val>
138

$$$$
>  <Compound>
CC(C)(C)CC(C)(C)c1ccc(O)cc1

>  <Result Type>
Kd

>  <Val>
2140

$$$$
